# Tested on: M. tuberculosis H37Rv growth inhibition
# procedure-details: M. tuberculosis H37Rv growth inhibitors, H37Rv strain (AID 1626)
# run-parameters: measured here: IC90 against H37Rv
The label is true (1) for IC90 below 8 µM and false (0) for IC90 equal to or exceeding 8 µM.

# example entries with known answers
>>> category_label("Cc1ccc(-c2nsc(SCC(=O)Nc3ccc4c(c3)OCO4)n2)cc1")
"true (1)"
>>> category_label("Nc1nc(-c2ccccn2)nc(N)c1Cc1c(F)cccc1Cl")
"true (1)"
>>> category_label("CC(C)(C)c1ccc(OCCCC(=O)NC2=NCCS2)cc1")
"false (0)"

Exercise: Lab note: IC90 threshold 8 µM. Does this compound come in strictly under it? "Nc1ncnc(Oc2cccc3cccnc23)c1[N+](=O)[O-]"
Solution: true (1)

Exercise: Lab note: IC90 threshold 8 µM. Does this compound come in strictly under it? "COc1ccc(CCNc2nc(N3CCCCC3)nc(N3CCCCC3)n2)cc1OC"
Solution: false (0)

====

# Test system: M. tuberculosis H37Rv growth inhibition
# procedure-details: M. tuberculosis H37Rv growth inhibitors, H37Rv strain (AID 1626)
# run-parameters: measured here: IC90 against H37Rv
property-label: IC90 (µM)
Use µM as the unit, but write only the number.

>>> result("NS(=O)(=O)c1ccc(CCNC(=O)c2ccc3nc4ccc(Cl)cc4c(=O)n3c2)cc1")
30.3
>>> result("COc1ccc(-c2nnc(SCC(=O)OC3CCCCC3)o2)cc1OC")
1.04
>>> result("CC(C)(C)c1ccccc1OCCCCCn1ccnc1")
10.9

Exercise: Name the value of IC90 reported for "Cc1ccc(-c2csc(NC(=O)CSc3nc4ccccc4c(=O)n3CCCN(C)C)n2)cc1" when tested on M. tuberculosis H37Rv growth inhibition.
Solution: 9.52

Exercise: Name the value of IC90 reported for "COc1ccc(CNC(=O)c2sc3nc4c(c(C(F)(F)F)c3c2N)CCC4)cc1OC" when tested on M. tuberculosis H37Rv growth inhibition.
Solution: 18.3

Exercise: Name the value of IC90 reported for COc1ccc(OCC(O)Cn2c(=N)n(CCN3CCCCC3)c3ccccc32)cc1 (stereo not drawn) when tested on M. tuberculosis H37Rv growth inhibition.
Solution: 6.86

Exercise: Name the value of IC90 reported for "O=C(OCC#CCSc1nc2ccccc2o1)c1ccco1" when tested on M. tuberculosis H37Rv growth inhibition.
Solution: 12.4

Exercise: Name the value of IC90 reported for "Cc1ccc(Nc2cc(C)nn2-c2nc(C)cc(=O)[nH]2)cc1" when tested on M. tuberculosis H37Rv growth inhibition.
Solution: 5.56

Exercise: Name the value of IC90 reported for "Cc1[nH]n2c(=O)cc(-c3ccc([N+](=O)[O-])cc3)nc2c1-c1ccccc1" when tested on M. tuberculosis H37Rv growth inhibition.
Solution: 1.43

Exercise: Name the value of IC90 reported for "Cc1nn2c(NCCCN(C)C)c3c(nc2c1-c1ccccc1)CCC3" when tested on M. tuberculosis H37Rv growth inhibition.
Solution: 50.1

====

Each entry below lists one item and its recorded IC50 value.
# Test system: M. tuberculosis H37Rv growth inhibition
# procedure-details: M. tuberculosis H37Rv growth inhibitors, H37Rv strain (AID 1626)

Exercise: Give the measured IC50 for "Cc1ccc(NC(=O)c2sc3nc(C)nc(N4CCN(c5ccccn5)CC4)c3c2C)c(C)c1"
Solution: 10.7 µM

Exercise: Give the measured IC50 for "CCN(CC)c1ccc(N=Cc2c(C)[nH]c3ccccc23)cc1"
Solution: 22.1 µM

Exercise: Give the measured IC50 for "Cn1cnc([N+](=O)[O-])c1S(=O)(=O)c1cccc(Cl)c1"
Solution: 10.9 µM

Exercise: Give the measured IC50 for COc1ccc(-c2csc(NC(C)c3nc4cc(Cl)c(N5CCCCC5)cc4n3CCOCCO)n2)cc1 (stereo unspecified)
Solution: 7.74 µM

Exercise: Give the measured IC50 for "CC(C)OC(=O)CSc1nnc(-c2ccc(Cl)cc2Cl)o1"
Solution: < 0.195 µM

Exercise: Give the measured IC50 for Cn1c(C(C#N)C(=O)c2ccco2)nc2ccccc21 (stereo unspecified)
Solution: 6.99 µM

Exercise: Give the measured IC50 for "CC(=O)OCCCNc1cc(Sc2nc3ccccc3s2)c2nonc2c1[N+](=O)[O-]"
Solution: 7.74 µM

====

# Tested on: M. tuberculosis H37Rv growth inhibition
# procedure-details: M. tuberculosis H37Rv growth inhibitors, H37Rv strain (AID 1626)
# run-parameters: measured here: Vero cell cytotoxicity
property-label: CC50

Example results:
>>> result("CCc1nnc(NC(=O)c2ccc3ccccc3n2)s1")
"> 40 µM"
>>> result("O=C(Nc1ccc(Oc2ccccc2)cc1)C1CC1")
"> 40 µM"

Exercise: Give the measured CC50 for "Cc1cc(NCCCn2ccnc2)n2nc(-c3ccc(Cl)cc3)cc2n1"
Solution: > 40 µM

Exercise: Give the measured CC50 for O=C(NCc1ccco1)c1cnn2c1NC(c1ccc(Br)cc1)CC2C(F)(F)F (stereo unspecified)
Solution: > 40 µM

Exercise: Give the measured CC50 for "COc1cc(N=c2c([N+](=O)[O-])nn(-c3ccc4c(c3)OCCO4)n2O)cc(OC)c1"
Solution: 16.2 µM

Exercise: Give the measured CC50 for "O=c1c2ccccc2c(C=NC2CCN(Cc3ccccc3)CC2)c(O)n1Cc1ccc2c(c1)OCO2"
Solution: > 40 µM

Exercise: Give the measured CC50 for "COc1cccc(-c2nnc(Nc3nc4c(F)cccc4s3)o2)c1"
Solution: > 40 µM

Exercise: Give the measured CC50 for "O=C(c1ccccc1)c1c2c(cc3sc4ccccc4[n+]13)-c1cccc3cccc-2c13"
Solution: 23.1 µM

Exercise: Give the measured CC50 for "Cc1cc(C)nc(-n2nc(C)cc2Nc2ccccc2)n1"
Solution: > 40 µM

Exercise: Give the measured CC50 for "CC(=O)Nc1nnc(-c2ccc3c(c2)CCCC3)o1"
Solution: > 40 µM

Exercise: Give the measured CC50 for "COc1ccc(C(=O)Oc2cccc3cccnc23)cc1[N+](=O)[O-]"
Solution: 39 µM

====

# Tested on: M. tuberculosis H37Rv growth inhibition
# procedure-details: M. tuberculosis H37Rv growth inhibitors, H37Rv strain (AID 1626)
property-label: IC50

>>> result("CSc1nsc(SCC(=O)Nc2ccc(OC(C)=O)cc2)n1")
"2.56 µM"
>>> result("O=C(CSc1nc2ccccc2o1)Nc1nc(-c2ccccc2)cs1")
"28.1 µM"
>>> result("Oc1ccccc1N=Cc1ccc[nH]1")
"3.04 µM"
>>> result("CC(C)N1CCC2(CC1)N=C(c1ccc3c(c1)OCO3)CC(c1cc(Cl)ccc1O)N2 (stereo not given)")
"8.26 µM"
>>> result("CC1CCN(c2nc(CN3CCCCC3)nc3scc(-c4ccccc4)c23)CC1")
"9.11 µM"

# evaluate next
Exercise: Give the measured IC50 for "O=C(CSc1ncnc2sc3c(c12)CCCC3)N1CCC(c2noc3ccc(F)cc23)CC1"
Solution: 2.94 µM

====

Each entry below lists one item and its recorded IC90 value.
# Tested on: M. tuberculosis H37Rv growth inhibition
# procedure-details: M. tuberculosis H37Rv growth inhibitors, H37Rv strain (AID 1626)
# run-parameters: measured here: IC90 against H37Rv
Use µM as the unit, but write only the number.

>>> result("CC/C(=C(\\c1ccc(O)cc1)c1ccc(OCCN(C)C)cc1)c1ccccc1")
12.3
>>> result("COc1ccc(CNCCC(c2ccc(F)cc2)c2ccc(OC(C)C)cc2)cc1OC (configuration not stated)")
20.8
>>> result("CCOC(=O)c1c(C)oc2ccc(OC(=O)c3cccs3)cc12")
13.6
>>> result("O=C(Nc1nnc(-c2ccc(F)cc2)o1)c1cc(Cl)sc1Cl")
2.86
>>> result("CCN(CC)c1ccc(/C=C(/C#N)c2nc3ccccc3[nH]2)c(OC(C)C)c1")
0.936

Exercise: Give the measured IC90 for O=C(/C=C/c1cn(CC(O)CN2CCCCCC2)c2ccccc12)c1cccs1 (configuration not stated)
Solution: 1.95

Exercise: Give the measured IC90 for "CC[C@H]1CC2CN3CCc4c([nH]c5c([C@H]6C[C@H]7[C@H](CC)CN(C)[C@@H](Cc8c6[nH]c6ccccc86)[C@H]7C(=O)OC)c(OC)ccc45)C(C(=O)OC)(C2)C13"
Solution: 7.6

====

# Test system: M. tuberculosis H37Rv growth inhibition
# procedure-details: M. tuberculosis H37Rv growth inhibitors, H37Rv strain (AID 1626)
# run-parameters: measured here: IC90 against H37Rv
Each entry below lists one item and its recorded IC90 value.
Use µM as the unit, but write only the number.

>>> result("Cc1cc(OCCCCCn2ccnc2)cc(C)c1Cl")
5.19
>>> result("Cc1cc(C)c(C2C3=C(Nc4c2c(C)nn4-c2ccccn2)c2ccccc2C3=O)c(C)c1 (configuration not stated)")
8.83
>>> result("O=C(CSc1ccc(-c2ccccn2)nn1)c1ccc(F)cc1")
36
>>> result("CCOc1ccc2c3c(c(=O)oc2c1OCC)CCCC3")
12.8

Exercise: Give the measured IC90 for "Cc1cc(C(=O)CCl)c(C)n1Cc1ccco1"
Solution: 8.28

Exercise: Give the measured IC90 for "CCCCCCn1c(=O)c(C(=O)Nc2nnc(C)s2)c(O)c2ccccc21"
Solution: 6

Data provenance is PubChem BioAssay AID1626.
